Recorded values, source paper PMC12526156.

assayed_system: hKOR (Homo sapiens, UniProt P41145)
method_summary: Competition binding, [3H]U69,593, hKOR-CHO membranes
Where a SMILES comes first, the peptide text is derived from it. [ ]: non-standard residue; d: D form.
measured_metric: Ki (nM)
Give bare numbers, in nM.

-- ask # Ki lookup, item O=C1N[C@H](Cc2c[nH]c3ccccc23)C(=O)N[C@@H](Cc2ccccc2)C(=O)N2CCC[C@@H]2C(=O)N[C@H]1Cc1ccccc1 [Analog 1, cyclo[Phe-D-Pro-Phe-D-Trp]] (cyclo(F[dP]F[dW]))
-- reply 6.9

----------
method_summary: Metabolic stability in human liver microsomes
Format: in vitro ADME
test_conditions: human liver microsomes, 1 mg protein/mL, read-out: HLM CLint
Where a SMILES comes first, the peptide text is derived from it. [ ]: non-standard residue; d: D form. The star is where a group is joined. dPhe(4-NO2) = N[C@H](Cc1ccc([N+](=O)[O-])cc1)C(=O)O; dTrp(1-Me) = Cn1cc(C[C@@H](N)C(=O)O)c2ccccc21; dPhe(3-F) = N[C@H](Cc1cccc(F)c1)C(=O)O; dPhe(2-F) = N[C@H](Cc1ccccc1F)C(=O)O; For = O=C*
Provide the reported microsomal CLint at 1 µM of each item.
Numbers only, in µL/min/mg.

compound	value_reported
Cn1cc(C[C@H]2NC(=O)[C@H](Cc3ccccc3)NC(=O)[C@H]3CCCN3C(=O)[C@H](Cc3ccccc3)NC2=O)c2ccccc21 [Analog 2, [D-Trp(Me)]CJ-15,208] (cyclo(F[dP]F[dTrp(1-Me)]))	286
O=C1N[C@H](Cc2ccccc2)C(=O)N[C@@H](Cc2ccccc2)C(=O)N2CCC[C@@H]2C(=O)N[C@H]1Cc1ccccc1 [Analog 4, cyclo[Phe-D-Pro-Phe-D-Phe]] (cyclo(F[dP]F[dF]))	165
O=C1N[C@H](Cc2ccc([N+](=O)[O-])cc2)C(=O)N[C@@H](Cc2ccccc2)C(=O)N2CCC[C@@H]2C(=O)N[C@H]1Cc1ccccc1 [Analog 16] (cyclo(F[dP]F[dPhe(4-NO2)]))	103
O=C1N[C@H](Cc2ccccc2F)C(=O)N[C@@H](Cc2ccccc2)C(=O)N2CCC[C@@H]2C(=O)N[C@H]1Cc1ccccc1 [Analog 5] (cyclo(F[dP]F[dPhe(2-F)]))	373

# map each compound to its microsomal CLint at 1 µM
1. O=Cn1cc(C[C@H]2NC(=O)[C@H](Cc3ccccc3)NC(=O)[C@H]3CCCN3C(=O)[C@H](Cc3ccccc3)NC2=O)c2ccccc21 [Analog 3, [D-Trp(formamide)]CJ-15,208] (cyclo(F[dP]F[dW](For)))
2. O=C1N[C@H](Cc2cccc(F)c2)C(=O)N[C@@H](Cc2ccccc2)C(=O)N2CCC[C@@H]2C(=O)N[C@H]1Cc1ccccc1 [Analog 6, [D-Phe(m-F)^4]CJ-15,208] (cyclo(F[dP]F[dPhe(3-F)]))

-- reply
[244, 376]

----------
assayed_system: hKOR (Homo sapiens)
method_summary: Competition binding, [3H]U69,593, hKOR-CHO membranes
test_conditions: [3H]U69,593, human KOR; ± S.E.M., three independent experiments; read-out: KOR Ki
Where a SMILES comes first, the peptide text is derived from it. [ ]: non-standard residue; d: D form. The star is where a group is joined. dPhe(3,4,5-F3) = N[C@H](Cc1cc(F)c(F)c(F)c1)C(=O)O; dPhe(F5) = N[C@H](Cc1c(F)c(F)c(F)c(F)c1F)C(=O)O; dPhe(3,5-F2) = N[C@H](Cc1cc(F)cc(F)c1)C(=O)O; For = O=C*
Lab note: cut-off is 40 nM. Strictly less in Ki is Fulfilled. Exactly 40 nM or more is Not fulfilled.

# count of solved cases: 4
molecule	assayed_system	qualitative_label
O=C1N[C@H](Cc2c(F)c(F)c(F)c(F)c2F)C(=O)N[C@@H](Cc2ccccc2)C(=O)N2CCC[C@@H]2C(=O)N[C@H]1Cc1ccccc1 [Analog 12] (cyclo(F[dP]F[dPhe(F5)]))	hKOR (Homo sapiens)	Not fulfilled
Cc1cc(C)cc([C@@H]2CCCN2Cc2ccc(Oc3ccc(C(N)=O)cc3F)cc2)c1 [Aticaprant, reference compound]	hKOR (Homo sapiens)	Fulfilled
COc1ccc(C[C@H]2NC(=O)[C@H](Cc3ccccc3)NC(=O)[C@H]3CCCN3C(=O)[C@H](Cc3ccccc3)NC2=O)cc1 [Analog 18, [D-Tyr(Me)^4]CJ-15,208] (cyclo(F[dP]F[dY](Me)))	hKOR (Homo sapiens)	Not fulfilled
O=C1N[C@H](Cc2cc(F)cc(F)c2)C(=O)N[C@@H](Cc2ccccc2)C(=O)N2CCC[C@@H]2C(=O)N[C@H]1Cc1ccccc1 [Analog 9, [D-Phe(3,5-F2)^4]CJ-15,208] (cyclo(F[dP]F[dPhe(3,5-F2)]))	hKOR (Homo sapiens)	Fulfilled

-- ask Dear reviewer, please state whether O=C1N[C@H](Cc2cc(F)c(F)c(F)c2)C(=O)N[C@@H](Cc2ccccc2)C(=O)N2CCC[C@@H]2C(=O)N[C@H]1Cc1ccccc1 [Analog 11] (cyclo(F[dP]F[dPhe(3,4,5-F3)])) has Ki strictly beneath 40 nM.
-- reply Fulfilled

-- ask Is Ki strictly under 40 nM for the entry O=Cn1cc(C[C@H]2NC(=O)[C@H](Cc3ccccc3)NC(=O)[C@H]3CCCN3C(=O)[C@H](Cc3ccccc3)NC2=O)c2ccccc21 [Analog 3, [D-Trp(formamide)]CJ-15,208] (cyclo(F[dP]F[dW](For))) ?
-- reply Fulfilled

----------
Please go through the items and note down their half-life.
method_summary: Metabolic stability in mouse liver microsomes
Format: in vitro ADME
test_conditions: microsomes, 1 µM compound, 1 mg protein/mL, 37 °C, read-out: MLM t1/2
Where a SMILES comes first, the peptide text is derived from it. [ ]: non-standard residue; d: D form. dPhe(3-Me) = Cc1cccc(C[C@@H](N)C(=O)O)c1; dPhe(4-Me) = Cc1ccc(C[C@@H](N)C(=O)O)cc1; dPhe(4-F) = N[C@H](Cc1ccc(F)cc1)C(=O)O
Give bare numbers, in min.

Example molecules with recorded half-life:
molecule	unit	half-life
Cc1cccc(C[C@H]2NC(=O)[C@H](Cc3ccccc3)NC(=O)[C@H]3CCCN3C(=O)[C@H](Cc3ccccc3)NC2=O)c1 [Analog 14, [D-Phe(m-Me)^4]CJ-15,208] (cyclo(F[dP]F[dPhe(3-Me)]))	min	1.5
O=C1N[C@H](Cc2ccc(F)cc2)C(=O)N[C@@H](Cc2ccccc2)C(=O)N2CCC[C@@H]2C(=O)N[C@H]1Cc1ccccc1 [Analog 7] (cyclo(F[dP]F[dPhe(4-F)]))	min	3.4

Then there is this molecule:
-- ask Tell me the measured half-life of Cc1ccc(C[C@H]2NC(=O)[C@H](Cc3ccccc3)NC(=O)[C@H]3CCCN3C(=O)[C@H](Cc3ccccc3)NC2=O)cc1 [Analog 15] (cyclo(F[dP]F[dPhe(4-Me)])) , please.
-- reply 2.9

----------
What microsomal CLint at 1 µM was measured for each of the following?
method_summary: Metabolic stability in mouse liver microsomes
Type: in vitro ADME
test_conditions: mouse liver microsomes, 1 mg protein/mL, read-out: MLM CLint
Where a SMILES comes first, the peptide text is derived from it. [ ]: non-standard residue; d: D form. The star is where a group is joined. dPhe(4-NO2) = N[C@H](Cc1ccc([N+](=O)[O-])cc1)C(=O)O; dPhe(3,4,5-F3) = N[C@H](Cc1cc(F)c(F)c(F)c1)C(=O)O; dTrp(1-Me) = Cn1cc(C[C@@H](N)C(=O)O)c2ccccc21; dPhe(3,4-F2) = N[C@H](Cc1ccc(F)c(F)c1)C(=O)O; dPhe(3,5-F2) = N[C@H](Cc1cc(F)cc(F)c1)C(=O)O; dPhe(3-F) = N[C@H](Cc1cccc(F)c1)C(=O)O; dPhe(2-F) = N[C@H](Cc1ccccc1F)C(=O)O; For = O=C*
Answers are plain numbers, in µL/min/mg.

molecule	microsomal CLint at 1 µM / µL/min/mg
O=C1N[C@H](Cc2c[nH]c3ccccc23)C(=O)N[C@@H](Cc2ccccc2)C(=O)N2CCC[C@@H]2C(=O)N[C@H]1Cc1ccccc1 [Analog 1, cyclo[Phe-D-Pro-Phe-D-Trp]] (cyclo(F[dP]F[dW]))	269

List the reported microsomal CLint at 1 µM of each molecule below.
1. Cn1cc(C[C@H]2NC(=O)[C@H](Cc3ccccc3)NC(=O)[C@H]3CCCN3C(=O)[C@H](Cc3ccccc3)NC2=O)c2ccccc21 [Analog 2, [D-Trp(Me)]CJ-15,208] (cyclo(F[dP]F[dTrp(1-Me)]))
2. O=C1N[C@H](Cc2cc(F)cc(F)c2)C(=O)N[C@@H](Cc2ccccc2)C(=O)N2CCC[C@@H]2C(=O)N[C@H]1Cc1ccccc1 [Analog 9, [D-Phe(3,5-F2)^4]CJ-15,208] (cyclo(F[dP]F[dPhe(3,5-F2)]))

-- reply
1: 211; 2: 600

Hi, could you look up microsomal CLint at 1 µM for each item in my list?
1. O=C1N[C@H](Cc2ccc(F)c(F)c2)C(=O)N[C@@H](Cc2ccccc2)C(=O)N2CCC[C@@H]2C(=O)N[C@H]1Cc1ccccc1 [Analog 8] (cyclo(F[dP]F[dPhe(3,4-F2)]))
2. O=C1N[C@H](Cc2cccc(F)c2)C(=O)N[C@@H](Cc2ccccc2)C(=O)N2CCC[C@@H]2C(=O)N[C@H]1Cc1ccccc1 [Analog 6, [D-Phe(m-F)^4]CJ-15,208] (cyclo(F[dP]F[dPhe(3-F)]))
3. O=C1N[C@H](Cc2ccccc2)C(=O)N[C@@H](Cc2ccccc2)C(=O)N2CCC[C@@H]2C(=O)N[C@H]1Cc1ccccc1 [Analog 4, cyclo[Phe-D-Pro-Phe-D-Phe]] (cyclo(F[dP]F[dF]))
4. O=C1N[C@H](Cc2ccccc2F)C(=O)N[C@@H](Cc2ccccc2)C(=O)N2CCC[C@@H]2C(=O)N[C@H]1Cc1ccccc1 [Analog 5] (cyclo(F[dP]F[dPhe(2-F)]))
5. O=C1N[C@H](Cc2cc(F)c(F)cc2F)C(=O)N[C@@H](Cc2ccccc2)C(=O)N2CCC[C@@H]2C(=O)N[C@H]1Cc1ccccc1
6. O=C1N[C@H](Cc2ccc([N+](=O)[O-])cc2)C(=O)N[C@@H](Cc2ccccc2)C(=O)N2CCC[C@@H]2C(=O)N[C@H]1Cc1ccccc1 [Analog 16] (cyclo(F[dP]F[dPhe(4-NO2)]))

-- reply
1: 629; 2: 331; 3: 447; 4: 430; 5: 699; 6: 159

The following molecules each have a reported value; give each one's microsomal CLint at 1 µM.
1. O=Cn1cc(C[C@H]2NC(=O)[C@H](Cc3ccccc3)NC(=O)[C@H]3CCCN3C(=O)[C@H](Cc3ccccc3)NC2=O)c2ccccc21 [Analog 3, [D-Trp(formamide)]CJ-15,208] (cyclo(F[dP]F[dW](For)))
2. O=C1N[C@H](Cc2cc(F)c(F)c(F)c2)C(=O)N[C@@H](Cc2ccccc2)C(=O)N2CCC[C@@H]2C(=O)N[C@H]1Cc1ccccc1 [Analog 11] (cyclo(F[dP]F[dPhe(3,4,5-F3)]))

-- reply
1: 607; 2: 238
